Where these numbers come from: the supplement of paper PMC9262897

# System: E. coli TESEC Mtb Asd
# test description: growth (OD600 after 10 h); higher = more growth (less inhibition)
# applied conditions: arabinose induction (level): Low; compound 0.1 mM; raw OD600 reference: median of DMSO wells 0.417, cell-free background 0.041
Counter-ions that a name gives are not always drawn.
Assign True whenever growth does not fall below 0.06; assign False whenever it does.

# example entries with known answers
> print(dat)
                                   compound         assayed.target  answer.label
1  C[C@@H]1CN(c2c(F)c(N)c3c(=O)c(C(=O)O)cn(C4CC4)c3c2F)C[C@H](C)N1  E. coli TESEC Mtb Asd         False
2             COc1ccc(C(=O)c2ccccc2O)c(O)c1  E. coli TESEC Mtb Asd          True

Enquiry: // inclusive: growth at least 0.06? input: C#CCN(C)CCCOc1ccc(Cl)cc1Cl [Clorgyline hydrochloride]
Return: True

Enquiry: // inclusive: growth at least 0.06? input: "CCn1cc(C(=O)O)c(=O)c2cc(F)c(N3CCNCC3)cc21"
Return: True

Enquiry: // inclusive: growth at least 0.06? input: C=CCc1ccccc1OCC(O)CNC(C)C (stereo not given) [Alprenolol hydrochloride]
Return: True

###

# Test system: E. coli TESEC Mtb Asd
# test description: growth (OD600 after 10 h); higher = more growth (less inhibition)
# applied conditions: arabinose induction (level): Low; compound 0.1 mM; raw OD600 reference: median of DMSO wells 0.417, cell-free background 0.041
Where a name gives a salt, the structure may show the parent alone.
reported property: growth
Note: the reply should be a number with no unit written.

> print(dat)
                                   compound  reported
1  CC(C)N1CCN(c2ccc(OCC3COC(Cn4cncn4)(c4ccc(Cl)cc4Cl)O3)cc2)CC1 (stereo not given)     0.397
2               CN(C)c1nc(N(C)C)nc(N(C)C)n1     0.436
3  O=C(O)CNC(=O)C(CS)Cc1ccccc1 (stereo not given)     0.382

Sample "CCCCNc1ccc(C(=O)OCCN(C)C)cc1" , system: E. coli TESEC Mtb Asd. Its growth is 0.354

Sample CN1CCN(C(c2ccccc2)c2ccc(Cl)cc2)CC1 (stereo not given) [Chlorcyclizine hydrochloride] , system: E. coli TESEC Mtb Asd. Its growth is 0.221

###

# Tested on: E. coli TESEC Mtb Alr
# test description: growth (OD600 after 10 h); higher = more growth (less inhibition)
# applied conditions: arabinose 1000000 nM; compound 0.1 mM; raw OD600 reference: median of DMSO wells 0.193, cell-free background 0.041
Where a name gives a salt, the structure may show the parent alone.
reported property: growth
Note: the reply should be a number with no unit written.

Sample answers from the record:
compound	growth
CCc1c(C)[nH]c2c1C(=O)C(CN1CCOCC1)CC2 (configuration not stated) [Molindone hydrochloride]	0.166
CC1COc2c(N3CCN(C)CC3)c(F)cc3c(=O)c(C(=O)O)cn1c23 (configuration not stated)	0.0396
NS(=O)(=O)c1cc(C2(O)NC(=O)c3ccccc32)ccc1Cl (configuration not stated)	0.168
CN1[C@@H]2CC[C@H]1C[C@@H](OC(c1ccccc1)c1ccccc1)C2 [Benztropine mesylate]	0.133
CN(C)[C@@H]1C(=O)C(C(N)=O)=C(O)[C@@]2(O)C(=O)C3=C(O)c4c(O)ccc(Cl)c4[C@@H](O)[C@H]3C[C@@H]12 [Demeclocycline hydrochloride]	0.0435

Recorded growth (compound COc1cc(NC(C)CCCN)c2ncccc2c1 (configuration not stated) [Primaquine diphosphate] ): 0.043

Recorded growth (compound COC(=O)CCc1ccc(OCC(O)CNC(C)C)cc1 (configuration not stated) [Esmolol hydrochloride] ): 0.195

Recorded growth (compound CCN(CC)CCOC(=O)C1(c2ccc([N+](=O)[O-])cc2)CCCC1 [Nitrocaramiphen hydrochloride] ): 0.147

Recorded growth (compound "CS(=O)(=O)OCCCCOS(C)(=O)=O" ): 0.184

Recorded growth (compound CC1(C)O[C@@H]2C[C@H]3[C@@H]4C[C@H](F)C5=CC(=O)C=C[C@]5(C)[C@@]4(F)[C@@H](O)C[C@]3(C)[C@]2(C(=O)CO)O1 [Fluocinolone acetonide] ): 0.146

Recorded growth (compound "OCCN(CCO)c1nc(N2CCCCC2)c2nc(N(CCO)CCO)nc(N3CCCCC3)c2n1" ): 0.0542

Recorded growth (compound O=P(O)(O)C(Cl)(Cl)P(=O)(O)O [Clodronate] ): 0.193

Recorded growth (compound CN(C(=O)C(Cl)Cl)c1ccc(OC(=O)c2ccco2)cc1 [Diloxanide furoate] ): 0.172

Recorded growth (compound "COC(c1ccccc1)(c1ccccc1)[C@H](Oc1nc(C)cc(C)n1)C(=O)O" ): 0.224

Recorded growth (compound Cc1cccc(Nc2ccncc2S(=O)(=O)NC(=O)NC(C)C)c1 [Torsemide] ): 0.17

Recorded growth (compound CC(C)NNC(=O)c1ccncc1 [Iproniazide phosphate] ): 0.188

Recorded growth (compound CNCCCC12CCC(c3ccccc31)c1ccccc12 [Maprotiline hydrochloride] ): 0.134

###

# Test system: E. coli TESEC Mtb Asd
# test description: growth (OD600 after 10 h); higher = more growth (less inhibition)
# applied conditions: arabinose induction (level): Low; compound 0.1 mM; raw OD600 reference: median of DMSO wells 0.417, cell-free background 0.041
Structures can show the parent of a compound that is named as a salt.
reported property: growth
Note: the reply should be a number with no unit written.

Sample answers from the record:
> print(dat)
                                   molecule  reported
1  Cc1ccc(C(=O)c2ccc(CC(=O)O)n2C)cc1 [Tolmetin sodium salt dihydrate]     0.367
2  NC[C@H]1CC[C@H](C(=O)O)CC1 [Tranexamic acid]     0.446
3  C#C[C@]1(O)CC[C@H]2[C@@H]3CCc4cc(O)ccc4[C@H]3CC[C@@]21C [Ethinylestradiol]    0.0911
4  CN1CCN(c2c(F)cc3c(=O)c(C(=O)O)cn4c3c2SCC4)CC1 [Rufloxacin]    0.0499

Now consider the entry below.
Recorded growth (molecule CC(=O)NS(=O)(=O)c1ccc(N)cc1 [Sulfacetamide sodic hydrate] ): 0.407

###

# System: E. coli TESEC Mtb Asd
# test description: growth (OD600 after 10 h); higher = more growth (less inhibition)
# applied conditions: arabinose induction (level): High; compound 0.1 mM; raw OD600 reference: median of DMSO wells 0.331, cell-free background 0.041
Counter-ions that a name gives are not always drawn.
reported property: growth
Note: the reply should be a number with no unit written.

Sample answers from the record:
compound	growth
NC1CCN(c2nc3c(cc2F)c(=O)c(C(=O)O)cn3-c2ccc(F)cc2F)C1 (stereo not drawn) [Tosufloxacin hydrochloride]	0.054
CCOC(=O)c1ccc(OC(=O)CCCCCNC(=N)N)cc1 [Gabexate mesilate]	0.135
CC[C@@]1(O)C(=O)OCc2c1cc1n(c2=O)Cc2cc3c(CN(C)C)c(O)ccc3nc2-1 [Topotecan]	0.214
CN(C)[C@@H]1C(=O)C(C(=O)NCNCCCC[C@H](N)C(=O)O)=C(O)[C@@]2(O)C(=O)C3=C(O)c4c(O)cccc4[C@@](C)(O)[C@H]3C[C@@H]12 [Lymecycline]	0.12

Recorded growth (compound Cc1c(-c2ccccc2)oc2c(C(=O)OCCN3CCCCC3)cccc2c1=O [Flavoxate hydrochloride] ): 0.217

Recorded growth (compound CN(C)CCC(c1ccc(Cl)cc1)c1ccccn1 (stereo not drawn) [Chlorpheniramine maleate] ): 0.291

Recorded growth (compound CC(C(=O)O)c1ccc2c(c1)[nH]c1ccc(Cl)cc12 (stereo not drawn) [Carprofen] ): 0.171

Recorded growth (compound Brc1c(NC2=NCCN2)ccc2nccnc12 [Brimondine L-Tartrate] ): 0.271

###

# System: E. coli TESEC Mtb Alr
# test description: growth (OD600 after 10 h); higher = more growth (less inhibition)
# applied conditions: arabinose 10000000 nM; compound 0.1 mM; raw OD600 reference: median of DMSO wells 0.146, cell-free background 0.041
Structures can show the parent of a compound that is named as a salt.
A collection of compounds and their measured growth
Note: the reply should be a number with no unit written.

Sample answers from the record:
> print(dat)
                                   compound         assayed.target  reported.property  reported
1  CCN(CC)CCOC(=O)C1(c2ccc([N+](=O)[O-])cc2)CCCC1 [Nitrocaramiphen hydrochloride]  E. coli TESEC Mtb Alr             growth     0.137
2  NS(=O)(=O)c1cc2c(cc1Cl)NCNS2(=O)=O [Hydrochlorothiazide]  E. coli TESEC Mtb Alr             growth      0.14

Sample Clc1ccc(CCC(Cn2ccnc2)Sc2c(Cl)cccc2Cl)cc1 (stereo not drawn) [Butoconazole nitrate] , system: E. coli TESEC Mtb Alr. Its growth is 0.0514

Sample CCCNC(C)C(=O)Nc1c(C)csc1C(=O)OC (stereo not drawn) [Articaine hydrochloride] , system: E. coli TESEC Mtb Alr. Its growth is 0.147

Sample C#C[C@]1(O)CC[C@H]2[C@@H]3CCC4=CC(=O)CC[C@@H]4[C@H]3CC[C@@]21CC [Norgestrel-(-)-D] , system: E. coli TESEC Mtb Alr. Its growth is 0.145

Sample "C=CC1=C(C(=O)O)N2C(=O)[C@@H](NC(=O)/C(=N\O)c3csc(N)n3)[C@H]2SC1" , system: E. coli TESEC Mtb Alr. Its growth is 0.0408

Sample COc1ccc(CN(CCN(C)C)c2ccccn2)cc1 [Pyrilamine maleate] , system: E. coli TESEC Mtb Alr. Its growth is 0.135

Sample CC(=O)O[C@]1(C(C)=O)CC[C@H]2[C@@H]3C=C(Cl)C4=CC(=O)CC[C@]4(C)[C@H]3CC[C@@]21C [Chlormadinone acetate] , system: E. coli TESEC Mtb Alr. Its growth is 0.11
